Experiment: A CellTox Green Cytotoxicity Assay to monitor cytotoxicity in HepG2 cells - 16 hour (AID 1224876); also: nearly all actives have a fitted effect of over 45% in size
Conditions: CellTox Green fluorescence; series mostly up to 76.8 µM
Text: National Center for Advancing Translational Sciences [NCATS] NIH Chemical Genomics Center [NCGC] U.S. Environmental Protection Agency [EPA] National Institutes of Environmental Health Sciences [NIEHS] National Toxicology Program [NTP] Cell-based models are critical for drug discovery. […] Viable cells produce no appreciable increases in fluorescence. Therefore, the fluorescence signal produced by the binding interaction with dead cell DNA is proportional to cytotoxicity. […]
Inconclusive results are not listed. Activity calls are given as the source filed them. Calls follow the shape of the dose curve; as a rule, active = well fitted activation curve with a large enough effect in the repeat runs; inconclusive = weak or mixed curves; inactive = flat fitted curve, though single readings scatter.
Hi! Could you answer with just one of these? active, inactive

{"columns": ["compound", "class"],
 "data": [
  ["CCCC1CCC(=O)CC1", "inactive"],
  ["Oc1c(I)cc(Cl)c2cccnc12", "inactive"],
  ["Sc1nc2ccccc2s1", "inactive"]
]}

Recorded test outcome, item c1cnccn1
inactive

What about COC1=C(OC)C(=O)C(CCCCCCCCCCO)=C(C)C1=O ?
inactive
